Origin of the recorded values: the supplement of paper PMC4466140

Measured on: ScBem1-D1
Assay remarks: SPOT peptide array binding signal intensity (averaged, normalized) (arbitrary units (background-subtracted, floor 0; scale differs between SH3 domains)); higher = stronger binding of the SH3 domain to the peptide
Measure: SPOT peptide array binding signal intensity
Could you keep your reply to the number by itself?

Task: Which SPOT peptide array binding signal intensity value is on record for `RKRAPTPPAPSRSEK` ?
Output: 21.5

Task: Bench note: what SPOT peptide array binding signal intensity did `DRIRMFIRFPKFLLE` show?
Output: 3
